apparent KD of MS2 coat protein values by entry
system: MS2 coat protein; assay: apparent KD of MS2 coat protein; higher = weaker reporter binding; settings: Eterna round: R107; input ligand: tryptophan 2.4 mM
Write down the numeric answer in nM and omit the unit.

GCCGCGGCCGCGAUACACAUGGGUGUGUAACGAGGACCGGUACGGCCGCCACUCGAGAUGGUGCACAUGAGGAUCACCCAUGUGC [Exclusion Tryp A GF15] ... 12.1
GUGUGGCGCUCGGCCGCCACUCAGACAUGAGGAUCACCCAUGUAGAACAUGAGGAUCACCCAUGUGAGGACCGGGAGACACACGA [Exclusion Tryptophan B GF11] ... 308
ACGUCAUGGAGAACGUGACGACUUGUCGAUACCAGUGUUUGAUAGCGCCCUUGGCAGCGAACAUGAGGAUCACCCAUGUCAAGGG [#11 SameState-TheophyllineA] ... 66.4

What is its apparent KD of MS2 coat protein for MS2 coat protein? Entry: AAUUCCUCACAUGAGGAUCACCCAUGUGAAGGAGCGCCGAAUAAGGCAGGUAGGUCGCACAUGGAAACCGCUACGAAAGUAGCAA
21.3

// next record GUAAUUAUAAGAAGGAGCGUCGAAAAUGGGUAAACAUGAGGAUCACCCAUGUAAAGGGAACGACAGGUAGGUCGCUUAUGAUUAC [AstromonsSSArgB#22]
202

// next record AACAUGAGGAUCACCCAUGUUUUAUGGGAUACCAGAGACGAAAGUCUCCCUUGGCAGCCCAAGCUGCUCCAUACGAAAGUAUGGU [Theophylline A 17]
16.6

====

system: MS2 coat protein; assay: apparent KD of MS2 coat protein, switch OFF state (with FMN for OFF switches, without FMN for ON switches); designed switch direction (-1 OFF switch, 1 ON switch): -1; higher = weaker reporter binding; conditions: FMN input: 0 or 200 uM; Eterna round: R93 (includes R88 designs)
property.label: apparent KD of MS2 coat protein (nM)
Write down the numeric answer in nM and omit the unit.

Some solved cases for reference:
AGUAUGCGAGGAUAUACAUGAGGAUCACCCAUGUGAGAGAUAAAAGUGAGAAAGACAAGUAGAAGGCGCGUACA [JL Lego Mod 23] ... 354
ACAGUUACAGGAUAUACAUGGGUGAAAAAAGUAUAUCCACUACAUGAGGAUCACCCAUGUAGAAGGGUAACUGA [Ex2 Design 174: Random 3] ... 12.3

For AGUUGGCGAGGAUAUACAUGAGGAUCACCCAUGUAAAAUAAAUAAAAAGGGAAAGAAAGUAGAAGGCGCUGACA [73%, Moding Norbert Elias, 10] , what is its reported apparent KD of MS2 coat protein?
83.3

====

tested on: MS2 coat protein; test: apparent KD of MS2 coat protein; designed switch direction (-1 OFF switch, 1 ON switch): 1; higher = weaker reporter binding; settings: input ligand: microRNA oligo, concentration not stated
apparent KD of MS2 coat protein values by entry
Write down the numeric answer in µM and omit the unit.

Some solved cases for reference:
GACCGCGAGGAAGGAUAUGGAGCCUAAUAGGCUCCAGAAGGUCCAUAAAGGACAUGAGGAUCACCCAUGUGGGCUGAAGCGGUC [Mat - Same State NG 1 - JL mod - D74] (Eterna round: R96, puzzle: Same State NG 1) ... 0.0214
GCGGAACGGGCCGACAUGAGGAUCACCCAUGUGCCCUCAUGUAAGGAUAUCGGGAAGAAGAAAACCGAGAAGGUACGGUGACGC [AK SSNG3-V2-30] (Eterna round: R96, puzzle: Same State NG 3) ... 0.0515
CUUUAUCACUAUACAUGAGGAUCACCCAUGUUAUCAUCAUGAGAGGAUAUCGUAUUUGGAUUUUUCGAGAAGGCUCUUUUGUAU [JR_SSNG3_Sub076] (Eterna round: R96, puzzle: Same State NG 3) ... 0.0904

For GGUAGGUUACUACCAAACAUGAGGAUCACCCAUGUAAGUGGGAAGGAUAUGGUACCUUUUAGGUACCAGAAGGUCCAUAAAAUU [JL Fiskers NG3ss - 2 mod 7] (Eterna round: R96, puzzle: Same State NG 3) , what is its reported apparent KD of MS2 coat protein?
0.355

====

test system: MS2 coat protein; test: apparent KD of MS2 coat protein; designed switch direction (-1 OFF switch, 1 ON switch): 1; higher = weaker reporter binding; details: input ligand: microRNA oligo, concentration not stated
apparent KD of MS2 coat protein values by entry
Write down the numeric answer in nM and omit the unit.

Some solved cases for reference:
GUUACAUGAGGAUCACCCAUGUAUGUGUGGGAGUAAGUGUCUUAGGAUAUCUAGUAUUUAAUUUGAGAGAAGGAAGAUUGUUGU [JMF's solution 70] (Eterna round: R96, puzzle: Same State NG 3) ... 83.9
GGAAACUUGAGAGGAUAUGUAGAGGAUCACCCUACAGAAGGCUCUUUUGAGAGGAUAUGUAGAGGAUCACCCUACAGAAGGCUC [pwkr ssNG DX.14] (Eterna round: R96, puzzle: Same State NG 1) ... 26.5
GGUGCCAAUAAAGCCUACAUGAGGAUCACCCAUGUAUGUAGGUAGGAUAUCGUUUGCUUUGCAAACGAGAAGGGCCUAGGCACC [JL SSNG3 1.20] (Eterna round: R96, puzzle: Same State NG 3) ... 40.2
GGUGCCAAAUAAGCCUACAUGAGGAUCACCCAUGUAUGUAGGCAGGAUAUCGUAUGCAAAGCAUACGAGAAGGGCCUAGGCACC [Mat - Same State NG 3 - JL Mod - D63] (Eterna round: R96, puzzle: Same State NG 3) ... 23.7
UUAACAUGAGGAUCACCCAUGUAUAGGGAGUUAGCAAUUUGACAGGAUAUUGAAGAUGUAGAUAGCAAGAAGGGUCGGUAGUCU [JR_SSNG3_Sub003] (Eterna round: R96, puzzle: Same State NG 3) ... 41.3
GCAGGACGAUAAUAUAUCUCACAUGAGGAUCACCCAUGUCGUGAGGAUAUGGAUCCUAAUUGGAUCCAGAAGGCAUGGUCCUGC [Fiskers NG3ss - 31] (Eterna round: R96, puzzle: Same State NG 3) ... 14.2
CAAGGGUACGGAUUAGUACAUGAGGAUCACCCAUGUAUCCGACAGGAUAUCAUGUAAGAAGCCAGUGAGAAGGGUCUAGUCCAA [Eternabot solution 43] (Eterna round: R96, puzzle: Same State NG 3) ... 205
GCUCGAAUCAAAACCAACAUGAGGAUCACCCAUGUAUGUUGGUAGGAUAUCGUUUGCUUUGCAAACGAGAAGGGCCAAACGAGC [SameState NG3 #3] (Eterna round: R96, puzzle: Same State NG 3) ... 121

Turning now to a further record.
For UACCGCGCAGAUGCGCAACAUGAGGAUCACCCAUGUGGCACACAGGAUAUCCUGAACAGCUAUUAGGAGAAGGGUGAAGGCCUC [Sotetelequ] (Eterna round: R96, puzzle: Same State NG 3) , what is its reported apparent KD of MS2 coat protein?
75.3

====

test system: MS2 coat protein; assay: apparent KD of MS2 coat protein; designed switch direction (-1 OFF switch, 1 ON switch): -1; higher = weaker reporter binding; settings: input ligand: microRNA oligo, concentration not stated
Just so you know, the groups by apparent KD of MS2 coat protein go like this: low-valued (below 30 nM), mid-valued (30 nM to below 100 nM), high-valued (100 nM or more)

AGUAACUAUCACGAAAGUGAUAGUUACAGCAAGUGAUAAACAUGAGGAUCACCCAUGUCCUCAUUUGCUCGUCUUAU [Sensor 3 - 12] (Eterna round: R96, puzzle: Sensor v3, turn-off variant 2) ... high-valued

# classify by apparent KD of MS2 coat protein band: CUGUUUUCCGCAGGAUAUGCUCCUCCAUUAUUAGCAGAAGGGCGUUGAACAUGAGGAUCACCCAUGUAUGUAAUUGAUUAUUGC [JR_ExcNG1_Sub071] (Eterna round: R96, puzzle: Exclusion NG 1)
low-valued

// next record AUCAGCUCGUGAGGAUAUACAUGAGGAUCACCCAUGUGAUCAAUAGCAGCUUCGGCUGCAUACAUGUAGAAGGCACGAGCUGAU [ENG2/6-A3] (Eterna round: R96, puzzle: Exclusion NG 2)
low-valued

// next record CGAUGCUCGAAUCCACAUGAGGAUCACCCAUGUCGAGUUAGCGAGGAUAUCGGUGACACAUAGUAUGAGAAGGCGCGAACCUGA [Ex NG3 #24] (Eterna round: R96, puzzle: Exclusion NG 3)
low-valued

// next record UUAGUAUAGCAAGGAUAUGUUUAUGUAUAGUUGCCUCUUACAUGAGGAUCACCCAUGUUUAACUUACAGAAGGUGCAAUGAUUU [JR_ExcNG2_Sub033] (Eterna round: R96, puzzle: Exclusion NG 2)
high-valued

// next record AGAGAAUACUCAGGAUAUCUGAAUAGAAAGAGAAGAGAAGGGAGACAUGAGGAUCACCCAUGUGAAGUCUUGAGGCUGCAUGGA [Prohibition 25 - Jieux - Exclusion NG 1] (Eterna round: R96, puzzle: Exclusion NG 1)
high-valued

// next record UUUAAUUUAAUUAAGAUCACAUGAGGAUCACCCAUGUAUAUAUAGGAUAUCAGCUCGAUUAGAGCUGAGAAGGAUAUAUACAUA [ExNG3/4-A1] (Eterna round: R96, puzzle: Exclusion NG 3)
high-valued

// next record CCUAUGUGAGGAUAUGGUGUUGGCCACAAGGAAAAGCUCCUCCAGAAGGCACAUGAGGAUCACCCAUGUCGUGG [Jolly's Folly 25 - Jieux - Exclusion 4] (Eterna round: R96, puzzle: Exclusion 4)
mid-valued

// next record ACCGCUUCUGCAGGAUAUGGACAACAUGAGGAUCACCCAUGUGAUCUAUAAAGUAGUGGUGGCGUCCAGAAGGGCAGAUUAAGG [Maamabi] (Eterna round: R96, puzzle: Exclusion NG 2)
mid-valued

// next record CCCAGUUAGAGAGGAUAUCGUACAUGAGGAUCACCCAUGUAAUAAAUGAGGAUUUCGGGUGUCUACGAGAAGGCUCGGAUAGGC [Ostracism 30 - Jieux - Exclusion NG 2] (Eterna round: R96, puzzle: Exclusion NG 2)
low-valued
